# measured-on: T1, human ROR1 (full-length, on the cell surface) (human, UniProt Q01973 30-937)
# T1 construct: whole, on cells; the tumour cell lines carry their own ROR1; also called Ba/F3-ROR1 cells; Jeko-1
# experiment-description: flow cytometry, HT-29 cells
property-label: pEC50
Just the number, please; pEC50 means minus log10 of the concentration in mol/L.

binder="19F6-Hu35V5 (antibody, human IgG1, kappa, V domains shown, humanized, human IgG1 / kappa) VH: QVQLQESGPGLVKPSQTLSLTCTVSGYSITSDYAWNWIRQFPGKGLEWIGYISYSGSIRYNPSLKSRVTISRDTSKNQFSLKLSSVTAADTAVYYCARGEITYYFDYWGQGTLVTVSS VL: ETTLTQSPAFMSATPGDKVTISCKASTDIDDDMNWYQQKPGKPPKLIISEGNTLRPGIPPRFSSSGYGTDFTFTINNIKSEDAATYYCLQSNDLPLTFGQGTKLEIKR" property_label=pEC50 recorded_number=9.77

query: Sample 3D8-HuC94 (antibody, human IgG1, kappa, V domains shown, humanized, human IgG1 / kappa) VH: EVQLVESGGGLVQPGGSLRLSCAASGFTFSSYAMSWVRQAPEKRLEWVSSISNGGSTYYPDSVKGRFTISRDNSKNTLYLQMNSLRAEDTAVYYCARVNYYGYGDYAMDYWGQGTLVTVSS VL: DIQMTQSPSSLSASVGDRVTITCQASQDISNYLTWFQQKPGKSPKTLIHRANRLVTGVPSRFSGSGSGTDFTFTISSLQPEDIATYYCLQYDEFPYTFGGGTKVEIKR — what was its pEC50?
result: 9.13
